- target entity: TRPC5 (Homo sapiens, UniProt Q9UL62)
- Construct: expressed in transfected cells; host or cells: HEK 293
- Sequence (Q9UL62 1-973): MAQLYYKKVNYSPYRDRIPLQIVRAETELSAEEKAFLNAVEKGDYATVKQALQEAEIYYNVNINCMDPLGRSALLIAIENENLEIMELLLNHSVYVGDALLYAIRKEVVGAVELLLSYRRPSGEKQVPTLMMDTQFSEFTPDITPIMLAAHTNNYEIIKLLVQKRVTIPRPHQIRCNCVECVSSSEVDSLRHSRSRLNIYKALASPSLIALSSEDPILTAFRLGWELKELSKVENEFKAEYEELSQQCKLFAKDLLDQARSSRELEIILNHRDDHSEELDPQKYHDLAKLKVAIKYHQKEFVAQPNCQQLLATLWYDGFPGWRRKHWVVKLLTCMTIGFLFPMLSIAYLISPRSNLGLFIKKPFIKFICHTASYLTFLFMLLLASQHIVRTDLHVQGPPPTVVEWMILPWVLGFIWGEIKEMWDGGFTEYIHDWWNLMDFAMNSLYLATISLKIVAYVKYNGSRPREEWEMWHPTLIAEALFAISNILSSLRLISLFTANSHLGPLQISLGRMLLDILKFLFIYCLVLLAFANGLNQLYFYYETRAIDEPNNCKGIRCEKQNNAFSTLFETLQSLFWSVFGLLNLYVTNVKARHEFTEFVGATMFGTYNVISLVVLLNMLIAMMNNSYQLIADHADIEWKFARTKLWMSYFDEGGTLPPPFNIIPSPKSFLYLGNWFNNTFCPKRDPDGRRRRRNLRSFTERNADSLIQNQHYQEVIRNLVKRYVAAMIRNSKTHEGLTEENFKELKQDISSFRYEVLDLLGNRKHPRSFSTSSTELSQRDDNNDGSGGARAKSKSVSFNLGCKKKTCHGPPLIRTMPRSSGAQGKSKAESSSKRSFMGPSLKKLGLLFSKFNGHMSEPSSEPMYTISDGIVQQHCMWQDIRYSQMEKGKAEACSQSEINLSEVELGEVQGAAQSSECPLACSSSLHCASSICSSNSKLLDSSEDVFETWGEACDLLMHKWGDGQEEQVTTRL
- procedure text: TRPC5 automated electrophysiology (Syncropatch - Spatch format)
- Format: cell-based
- cond: Table 6; HEK293 cells overexpressing TRPC5
Provide the recorded IC50 for the entries that follow.

Example molecules with recorded IC50:
C[C@H]1Cc2c(nnn2Cc2ccccc2C(F)F)CN1c1cn[nH]c(=O)c1Cl :: 10 to 500 µM
O=c1[nH]ncc(N2CCc3c(nnn3Cc3cccnc3C(F)F)C2)c1Cl :: 5 to 10 µM
CC1c2nnn(Cc3ccccc3C(F)F)c2CCN1c1cn[nH]c(=O)c1Cl (stereo not shown) [drawing 923] :: 10 to 500 µM

Give IC50 for all molecules that follow.
1. CC[C@H](c1cncc(F)c1)n1cnc2c1CCN(c1cn[nH]c(=O)c1Cl)C2
2. CCc1ncccc1Cn1nnc2c1CCN(c1cn[nH]c(=O)c1C#N)C2 [drawing 918]

result:
["1 to 5 µM", "1 to 5 µM"]

Give IC50 for all molecules that follow.
1. COc1cccc(Cn2nnc3c2CCN(c2cn[nH]c(=O)c2Cl)C3)c1C
2. N#Cc1cc(F)ccc1Cn1nnc2c1CCN(c1cn[nH]c(=O)c1Cl)C2
3. O=c1[nH]ncc(Cl)c1N1CCc2c(nc(C3CC3)n2Cc2ccccc2C(F)(F)F)C1
4. CC1Cc2c(nnn2Cc2ccccc2C(F)F)CN1c1cn[nH]c(=O)c1Cl (stereo not shown)

result:
1. 1 to 5 µM
2. 5 to 10 µM
3. 10 to 500 µM
4. 1e-05 to 1 µM

query: Endpoint output: IC50 of CC1c2nnn(Cc3ccccc3C(F)F)c2CCN1c1cn[nH]c(=O)c1Cl (stereo not shown) [drawing 924] . Value?
result: 1e-05 to 1 µM
